# Tested on: transactivating tegument protein VP16 (Human herpesvirus 1)
# TEST SUMMARY: VP16 transactivation reporter inhibitors, counter-screen for SRC2 inhibitor project, cell-based, luminescence, single concentration (AID 652007)
# DETAILS: cell-based VP16 transactivation luciferase reporter, at 8.9 µM, active compounds read high
The source made the active and inactive calls. Rule as the data show it: active = inhibition above about 36%; inactive = the rest.
READOUT NAME: inhibition

Some compounds with known inhibition results, for comparison:
RECORD SMILES	inhibition
Cc1ccc(C(C)C)c(OCc2ccc(C(=O)N/N=C/c3ccc(O)c(O)c3)cc2)c1	-11% (inactive)
CN(C)c1ccc(NC(=S)c2ccccn2)cc1	1.77% (inactive)
COc1ccc(CC(=O)Nc2cccc(-c3nnc(-c4ccccc4)o3)c2)cc1OC	27.1% (inactive)

Request body: readout inhibition, system transactivating tegument protein VP16 (Human herpesvirus 1), query CN(/C(=N\S(=O)(=O)c1ccccc1)c1ccccc1)c1ccc(O)cc1 . Return the value.
-3.87% (inactive)

Reference for the values: PubChem BioAssay
